# assayed_target: human mesothelin (MSLN) (human) (UniProt Q13421)
# Sequence (Q13421 296-606 limits assumed): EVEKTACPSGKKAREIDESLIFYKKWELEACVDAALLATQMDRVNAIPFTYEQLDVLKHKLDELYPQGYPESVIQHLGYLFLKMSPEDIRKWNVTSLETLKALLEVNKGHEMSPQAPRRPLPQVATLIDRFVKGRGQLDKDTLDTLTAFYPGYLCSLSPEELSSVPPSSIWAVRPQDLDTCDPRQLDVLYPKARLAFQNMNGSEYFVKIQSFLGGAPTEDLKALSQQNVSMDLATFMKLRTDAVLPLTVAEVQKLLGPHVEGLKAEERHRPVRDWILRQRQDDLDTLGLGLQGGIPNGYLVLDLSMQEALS
# method_description: cell-based or functional assay
recorded_endpoint: TDCC Average EC50 [M], OVCAR8 cells, human T cells (M)
Just the number please, in M, no unit attached.

Query :: For MSLN targeting trispecific protein 7H2 (protein, part only; not given: Albumin and CD3 binders, linkers, part only) chain, part: QVQLVESGGGLVQAGGSLRLSCAFSGTTYTFDLMSWYRQAPGKQRTVVASISSDGRTSYADSVRGRFTISGENGKNTVYLQMNSLKLEDTAVYYCLGQRSGVRAFWGQGTQVTVSSHHHHHH , what is its reported TDCC Average EC50 [M], OVCAR8 cells, human T cells?
Result :: 5.5e-12

Query :: # input binder: MSLN targeting trispecific protein 5H1 (protein, part only; not given: Albumin and CD3 binders, linkers, part only) chain, part: QVQLVESGGGLVQPGGSLRLSCAASGGDWSANFMYWYRQAPGKQRELVARISGRGVVDYVESVKGRFTISRDNAKNTVYLQMNSLKPEDTAVYYCAVASYWGQGTQVTVSSHHHHHH ; wanted: its TDCC Average EC50 [M], OVCAR8 cells, human T cells
Result :: 5.9e-12

Query :: Dear colleague, I am looking for the recorded TDCC Average EC50 [M], OVCAR8 cells, human T cells of the following binder: MSLN targeting trispecific protein 12C2 (protein, part only; not given: Albumin and CD3 binders, linkers, part only) chain, part: QVQLVESGGGLVQTGGSLRLSCAASGLTFGVYGMEWFRQAPGKQREWVASHTSTGYVYYRDSVKGRFTISRDNAKSTVYLQMNSLKPEDTAIYYCKANRGSYEYWGQGTQVTVSSHHHHHH
Result :: 8e-13

Query :: What value of measured TDCC Average EC50 [M], OVCAR8 cells, human T cells is listed for MSLN targeting trispecific protein 6F3 (protein, part only; not given: Albumin and CD3 binders, linkers, part only) chain, part: QVQPVESGGGLVQPGGSLRLSCVVSGSDFTEDAMAWYRQASGKERESVAFVSKDGKRILYLDSVRGRFTISRDIYKKTVYLQMDNLKPEDTGVYYCNSAPGAARNVWGQGTQVTVSSHHHHHH ?
Result :: 8.2e-10
